# Procedure details: soluble fraction after stress (log2 fold change); higher = more stays soluble; pooled small domains, quantitative proteomics
# Condition label: stress: pH 4
Each entry gets No if its soluble fraction (log2) stays under -0.08, and Yes if its soluble fraction (log2) is -0.08 or above.

## Input Reported soluble fraction (log2) reaches at least -0.08 for `HMGVTVDEVHRNFESGMNVVHKKFGAGVVDSFDEGKIRINFDGVIKVFIADVLINSGMLESVSYTH` ?
## Output No

## Input Another sequence to check: `HMPTVLKQGSTGQEVKELQQALSKLGYRVTVTGEFDTATHYGVVRFQRKHRLTIDGIVGPQTLSKIRAHQK`
## Output Yes

## Input Another sequence to check: `HMQLSQLLQPFDINAFKGHPLYTEENVKMFNDYTNRVKEWTKGTPYEQYWVTKEGQPTMLAWDSFKK`
## Output No

## Input Another sequence to check: `HMAPRQDIAYYTVKPGDTVLAIAEKFGLQPETLMWSNSIIEQNPDRLSIGDELRILPVDGVLHVVK`
## Output No

## Input Another sequence to check: `HMSGPVITEERNIANALISGLANMKETPTREQVERKAQQIAELFGYTGDLRNIITEAMISVDT`
## Output No

## Input Another sequence to check: `HMKEEVMVPNVVGKELSAALLEMQVKELYPKLQLKYSNFVDDKGTVLEQSPPAGSIVKAGRRINLVVSRGA`
## Output Yes

## Input Another sequence to check: `HMLPLGSNEYETAVIKHLASGVQDADEIQRLTGIDQTSLNTALTMLELAGTIRPLGNNHWTL`
## Output Yes

## Input Another sequence to check: `HMKQLNKRQDDILSLAEKEGYVSVENLAKTFTVSQQTIRRDINYLSDHEFLVRTHGGAFYSSG`
## Output No

## Input Another sequence to check: `HMSMDAVSLANRLLRFFQKRPGRKFTAADLAFETGMNERTGKSLVTSALEILSRTNQIEADGDGFRLKM`
## Output Yes

## Input Another sequence to check: `HMSRDYKTELQERLQVNGPVKIEYQVIAEDESKPSFKVQLLVNDKKISEGQGRNKKAAEQQAAQAAL`
## Output Yes

## Input Another sequence to check: `HMDSLSGQQGRVLEEINGFLQTGKVLLNGMEWSAVSKQPEDILPVDTEVVVVRVEGAHLVVKKA`
## Output No

## Input Another sequence to check: `HMTVDYDKFTKDTVVQHNKFGKGVIIMTSGDGEDKIASIAFQGLGVKRFSLAIAASNLKILGKVNED`
## Output No

## Input Another sequence to check: `HMDDIVPHSTKNHIIKTFLSLMNSLDIITDKNKKSLNQNVHIIFNKFNFSKKEANLFIGVLNRIQKALK`
## Output Yes

## Input Another sequence to check: `HMVVNERIKKLRRSLDLTQQEFADRIGVKRNTIANYEIGRNEPIDSVLELIVREFGVSKQWLLDGTGEMF`
## Output Yes

## Input Another sequence to check: `HMGVREIIVQFLEQFDKPKSVQEIVEYVLRYRNTTENSIRSTMYSGSQFRQFDNGYFGLSDKSYPNEYIYA`
## Output No

## Input Another sequence to check: `HMKELLQEMIMDILRAIASPNIDIKRKTLDLVLDLITPRNIDNVTGMLKTEVVKSQSENTSDVG`
## Output No

## Input Another sequence to check: `HMQISLDTKLINLEFSVRANNVFRENQIFTLRDLTSHSKEDLMLMTNFGKTTLYEVNKKLEEHQLKLSQ`
## Output No

## Input Another sequence to check: `HMLIVLKPNVSQEEIDHIVDKIRSLSLEPHVSTGVQRTIITVIGDEDVIREQPLEALAGVESVKSILKP`
## Output No

## Input Another sequence to check: `HMKKISAKQQQILDYISSYSLEHGYPPSVREIGAEMGLRSPSTVHAHLKKLQEAGYLEPNEHKSRALTP`
## Output No

## Input Another sequence to check: `HMAFDYETYQLTSREFSIIELVADGRSNREIAEALYLGEGTVRNYLSSILEKLELRDRTQLAVFFYQHL`
## Output No

## Input Another sequence to check: `HMGLASEVKTEDVLNEEKYDFEPDLIGNNNEAIYQNKQTGSYVLFDRNQNKVTKVLSAGEVLNHSKYNE`
## Output Yes

## Input Another sequence to check: `HMQSSDQTDNIYENAVSIVLETGKASASHLQRVLGIDYNLAAHLIDKMEDGGLLSPPNYLGHRDVYGYT`
## Output No

## Input Another sequence to check: `HMTEISGIEKFLASGAINGIGPAMAKKIVAEFGEKTLEIIAKSPNELLKVPGIGKKTAEKISTSYLEQ`
## Output Yes

## Input Another sequence to check: `HMVEYFDDENLDAFIGRESDSYTEKEIEQFREILYTMNQKEVADWNRSLTIRGINIPNDLKDEMIMMI`
## Output No

## Input Another sequence to check: `HMTSSKISFIDPVNGGKVSVSLENSTLEKLQNRFGVNSVVRNEAGDVELKDKAQEFVAGWFADIAYTRG`
## Output No

## Input Another sequence to check: `HMKFYIHEIIGFNAVDKVAGIVGKVININEDSPQKKLVVNYNGKEVFIPLVDEIVRKIDKQKNEVLITMP`
## Output No

## Input Another sequence to check: `HMEDKFEYQGELKSLIEPTSFSELVSALNVRDTLQAIIDFAMREEDTSGYEELKVRQNDYIQEYLNSIGNF`
## Output No

## Input Another sequence to check: `HMPKHDWDAFAGAIARRVHDHGMPVSQGELVRDMMDWFAGRKDFPPPDERTVRRKVSAIWRELNG`
## Output No

## Input Another sequence to check: `HMAPRSSAVYFYLSQVALKKNQPRKAEAMARRGLTVSQDANRRRALWQLILRSGQAQNNTRVIREAQQAL`
## Output Yes

## Input Another sequence to check: `HMTRIHEEVVNQVHDLVKEGRFKAGDQLPSERELAEIFKVSRTSVREALRALETQGLIISRTGMGNFIAD`
## Output No

## Input Another sequence to check: `HMLLPANLTKSQRNIAERVARGQSNLEIAADLNITERTVKAHLTSIYEKTKTGNRLNLALLINLG`
## Output No

## Input Another sequence to check: `HMEQYYVFFAGGMTIGTKEWYESILPENIATSYDDILEGKMMPASLEQIEFYNSHKDYDLYHLFYML`
## Output No

## Input Another sequence to check: `HMPLNRFLNLPHEDKERVLLIAKKQFSTHGYDAMSLNLLLKELDISKGQFYYWFEDKADLFFTVL`
## Output Yes
